Target: human Cot/Tpl2 kinase (Homo sapiens, UniProt P41279)
Construct: human Cot/Tpl2 kinase construct encoding residues 30-398; 6His (N); made in house; host or cells: Sf9 insect cells, baculovirus system (BD Biosciences)
Sequence (P41279 30-398): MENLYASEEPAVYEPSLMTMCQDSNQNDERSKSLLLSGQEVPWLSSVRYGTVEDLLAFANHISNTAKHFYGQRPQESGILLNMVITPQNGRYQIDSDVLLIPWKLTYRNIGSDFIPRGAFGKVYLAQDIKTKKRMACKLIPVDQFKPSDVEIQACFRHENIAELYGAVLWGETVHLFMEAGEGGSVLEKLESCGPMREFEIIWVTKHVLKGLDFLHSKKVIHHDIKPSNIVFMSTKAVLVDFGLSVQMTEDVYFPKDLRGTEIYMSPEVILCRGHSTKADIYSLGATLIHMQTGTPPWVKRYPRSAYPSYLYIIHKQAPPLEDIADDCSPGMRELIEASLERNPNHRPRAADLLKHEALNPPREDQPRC
Test: Tpl2/Cot kinase assay: GST-MEK1 phosphorylation detected by ELISA (DELFIA Eu)
Type: biochemical
Details: Tpl2/Cot kinase, GST-MEK1 substrate, 50 uM ATP, 1 h at 30° C.; Table 2
Experimental: Sf9 cells expressing the kinase were lysed in 50 mM NaPhosphate pH=8; 300 mM NaCl; 5 mM imidazole; 0.1 mM EGTA; 25 mM beta-glycerophosphate; 1% TX-100, 1% glycerol; 6 mM beta-mercaptoethanol and protease inhibitors. […] Tpl2/Cot activity was directly assayed using GST-MEK1 as a substrate. GST-MEK1 phosphorylation on serine residues 217 and 221 was detected by ELISA. […] After a final wash, Eu detection solution was added to each well and the Eu signal was measured in a Wallac Victor^2 Multilabel Counter. […]
property: IC50 (nM)

Lookup: Record request: IC50 value, item CCN1CCC(c2cc(CNc3cc(Br)c4ncc(C#N)c(Nc5ccc(F)c(Cl)c5)c4c3)[nH]n2)CC1 [Example 1045]
Found: 610

A. N#CCn1cc(CNc2cc(Cl)c3ncc(C#N)c(Nc4ccc(F)c(Cl)c4)c3c2)nn1 [Example 1021]
B. CC(C)(C)OC(=O)N1CCC(O)(c2cncc(CNc3cc(Cl)c4ncc(C#N)c(Nc5ccc(F)c(Cl)c5)c4c3)c2)CC1 [Example 1031]
C. N#Cc1cnc2c(Cl)cc(NCc3cn(C4CC5CCC(C4)N5C=O)nn3)cc2c1Nc1ccc(F)c(Cl)c1 (stereo not shown) [Example 1059]
D. CN(C)CCn1cc(CNc2cc(Cl)c3ncc(C#N)c(NC4CCCCCC4)c3c2)nn1 [Example 950]
E. N#Cc1cnc2c(Cl)cc(N(Cc3cn(C4CCN(C5CCC5)CC4)nn3)C3CCC3)cc2c1Nc1ccc(F)c(Cl)c1 [Example 1029]
Lookup: Ascending by IC50, please: list the compounds accordingly. Answer by writing out the labels in the requested order.
Found: C, B, E, A, D
(C: 14 nM, B: 160 nM, E: 290 nM, A: 430 nM, D: 620 nM)
